# test-system: T1, human DLL3 (ACRO, DLL3-H52H4) (human, UniProt Q9NYJ7 27-492)
# T1 construct: Bought
# T1 sequence: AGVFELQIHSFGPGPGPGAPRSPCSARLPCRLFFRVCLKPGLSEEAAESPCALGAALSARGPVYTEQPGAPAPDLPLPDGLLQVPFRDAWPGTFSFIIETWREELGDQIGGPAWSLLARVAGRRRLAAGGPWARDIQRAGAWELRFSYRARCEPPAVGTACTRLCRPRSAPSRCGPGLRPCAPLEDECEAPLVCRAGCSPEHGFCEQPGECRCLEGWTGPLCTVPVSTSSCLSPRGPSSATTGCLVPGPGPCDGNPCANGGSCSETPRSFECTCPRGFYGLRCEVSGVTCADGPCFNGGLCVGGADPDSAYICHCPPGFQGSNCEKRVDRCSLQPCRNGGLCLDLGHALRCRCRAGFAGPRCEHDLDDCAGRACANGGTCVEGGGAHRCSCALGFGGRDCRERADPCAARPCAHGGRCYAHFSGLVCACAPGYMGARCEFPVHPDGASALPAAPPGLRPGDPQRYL
# assay-procedure: SPR Biacore 8K, Ab captured on Protein A
Please go through the items and note down their Kd.

Please report the recorded Kd for hu30L1H3 (antibody, human IgG1, kappa, V domains shown) VH: EVRLVQSGAEVKKPGASVKVSCKASGYTFTDYYMNWVRQAPGQSLEWMGIINPYQGDTSYNQKFRGRVTLTVDKSASTAYMELSSLRSEDTAVYYCARYHYGPHLEGYFDVWGQGTTVTVSS VL: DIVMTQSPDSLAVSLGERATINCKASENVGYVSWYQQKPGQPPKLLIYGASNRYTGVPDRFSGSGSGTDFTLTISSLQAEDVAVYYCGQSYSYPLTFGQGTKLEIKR . 1.99 nM

Please report the recorded Kd for hu98L2H2 (antibody, human IgG1, kappa, V domains shown) VH: EVQLVESGGGLVQPGGSLRLSCAASGFTFSDYGIHWVRQAPGKGLEWVAYISSGGYTIYYADTVKGRFTISRDNAKNSLYLQMNSLRAEDTAVYYCARGDYEDIFYTMDYWGQGTTVTVSS VL: DIQMTQSPSSLSASVGDRVTITCRASRDITKFLNWYQQKPGKAVKLLIYYTSRLHSGVPSRFSGSGSGTDYTLTISSLQPEDFATYYCQQGNTLPWTFGGGTKVEIKR . 0.55 nM

Please report the recorded Kd for hu6L2H7 (antibody, human IgG1, kappa, V domains shown) VH: EVQLVESGGGLVQPGGSLKLSCAASGYTFTDYYMNWVRQASGKGLEWVGIINPYSGVTIYNHKFKGRFTLSVDKSKNTAYLQMNSLKTEDTAVYYCARQDSLLDYAMDYWGQGTTVTVSS VL: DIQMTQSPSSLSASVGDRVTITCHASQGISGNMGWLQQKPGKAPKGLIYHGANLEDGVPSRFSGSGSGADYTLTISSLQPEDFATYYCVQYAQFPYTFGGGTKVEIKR . 3.06 nM

Please report the recorded Kd for hu6L1H2 (antibody, human IgG1, kappa, V domains shown) VH: EVQLVQSGAEVKKPGASVKVSCKASGYTFTDYYMNWVRQAPGQRLEWMGIINPYSGVTIYNHKFKGRVTLTVDKSANTAYMELSSLRSEDTAVYYCARQDSLLDYAMDYWGQGTTVTVSS VL: DIQMTQSPSSLSASVGDRVTITCHASQGISGNMGWLQQKPGKAPKGLIYHGANLEDGVPSRFSGSGSGTDFTLTISSLQPEDFATYYCVQYAQFPYTFGGGTKVEIKR . 2.19 nM

Please report the recorded Kd for hu98L1H1 (antibody, human IgG1, kappa, V domains shown) VH: EVQLVESGGGLVQPGGSLRLSCAASGFTFSDYGIHWVRQAPGKGLEWVAYISSGGYTIYYADTVKGRFTISRDNAKNSLYLQMNSLRAEDTAVYYCARGDYDDIFYTMDYWGQGTTVTVSS VL: DIQMTQSPSSLSASVGDRVTITCRASRDITKFLNWYQQKPGKAPKLLIYYTSRLHSGVPSRFSGSGSGTDFTLTISSLQPEDFATYYCQQGNTLPWTFGGGTKVEIKR . 1.1 nM
